Data origin: the supplement of paper PMC9663587

System: HTERT_HME1
Test: area over the GR curve, 72 h; higher = more effect
area over the GR curve of 0.3 GR or higher: MET. Under 0.3 GR: NOT MET.

Could you verify whether the entry CC(C)n1nc(-c2ccc3oc(N)nc3c2)c2c(N)ncnc21 [INK128/MLN0128] (max 3.162 µM) shows area over the GR curve of no less than 0.3 GR?
MET

Dear colleague, could you confirm whether CN(C)C/C=C/C(=O)Nc1ccc(C(=O)N2CCC[C@@H](Nc3ncc(Cl)c(-c4c[nH]c5ccccc45)n3)C2)cc1 [THZ531] (max 1 µM) has area over the GR curve at or above 0.3 GR?
NOT MET

Is reported area over the GR curve greater than or equal to 0.3 GR here: Cc1nn(C)c(COc2ccc(N3CCN(S(=O)(=O)N(C)C)CC3)cc2)c1-c1cccc2c(CCCOc3cccc4ccccc34)c(C(=O)O)n(CCN3CCOCC3)c12 (max 10 µM)
MET

Kindly determine if area over the GR curve recorded for Cc1nc(NC(=O)N2CCC[C@H]2C(N)=O)sc1-c1ccnc(C(C)(C)C(F)(F)F)c1 [Alpelisib/BYL719] (max 10 µM) is above or exactly 0.3 GR.
NOT MET

In plain terms: is recorded area over the GR curve at least 0.3 GR for C[C@@H]1COCCN1c1cc(C2([S@](C)(=N)=O)CC2)nc(-c2cc[nH]c3nccc2-3)n1 [AZD6738] (max 10 µM) ?
NOT MET

Say whether CC(C)Nc1cc(-c2c[nH]c(C(=O)N[C@H](CO)c3cccc(Cl)c3)c2)c(Cl)cn1 [BVD523] (max 10 µM) shows area over the GR curve of 0.3 GR or more.
MET

###

Would you mind telling me the reported GRmax, 72 h of each entry?
Tested on: UACC893
Experiment: GRmax, 72 h; higher = less effect;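 note: breast cell lines in 384-well plates, nine doses across a 10^4 range, Dye Drop imaging of viable cells vs DMSO and time-zero plates, GR 0 means no net growth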
Provide only the numeric value, understood in GR.

GRmax, 72 h for COc1cccc(OCCCN)c1-c1cc(Nc2cnc(C#N)cn2)n[nH]1 ?
0.365

Look up GRmax, 72 h: NC(=O)Nc1cc(-c2cccc(F)c2)sc1C(=O)N[C@H]1CCCNC1 [AZD7762] (max 10 µM)
-0.308

GRmax, 72 h for CC(C)NC[C@@H](C(=O)N1CCN(c2ncnc3c2[C@H](C)C[C@H]3O)CC1)c1ccc(Cl)cc1 [Ipatasertib/GDC0068] (max 10 µM) ?
-0.794

###

System: MDAMB361
Experiment: area over the GR curve, 72 h; higher = more effect;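 note: Dye Drop or Deep Dye Drop imaging of viable cells in 384-well plates (Hoechst nuclei, LIVE/DEAD dye), nine half-log doses, GR normalized to DMSO controls and time-zero plates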
So I've got a bunch of compounds here, and I need their area over the GR curve values.
Write it as a number; the unit GR goes unstated.

Consider the compound CCNC(=O)c1noc(-c2cc(C(C)C)c(O)cc2O)c1-c1ccc(CN2CCOCC2)cc1 [Luminespib/NVP-AUY922] (max 1 µM) and give its measured area over the GR curve.
0.978

For the compound COc1cc2c(Oc3ccc4[nH]c(C)cc4c3F)ncnc2cc1OCCCN1CCCC1 [Cediranib/AZD2171] (max 10 µM) , what area over the GR curve is on record?
0.288

What does the record list as area over the GR curve for C=CC(=O)Nc1ccc(C(=O)Nc2[nH]nc3c2CN(C(=O)N[C@H](CN(C)C)c2ccccc2)C3(C)C)cc1 [YKL-5-124] (max 10 µM) ?
1.14

Data request, read-out area over the GR curve, for CC[C@@H]1C(=O)N(C)c2cnc(Nc3ccc(C(=O)N[C@H]4CC[C@H](N5CCN(CC6CC6)CC5)CC4)cc3OC)nc2N1C(C)C [Volasertib/BI6727] (max 1 µM)
0.793

Entry CN(C)C/C=C/C(=O)Nc1ccc(O[C@@H]2CCC[C@@H](Nc3ncc(Cl)c(-c4c[nH]c5ccccc45)n3)C2)cc1 [BSJ-01-175] (max 10 µM) : reported area over the GR curve = ?
1.32

What value of measured area over the GR curve is listed for CN(C)CC[C@H](CSc1ccccc1)Nc1ccc(S(=O)(=O)NC(=O)c2ccc(N3CCN(Cc4ccccc4-c4ccc(Cl)cc4)CC3)cc2)cc1[N+](=O)[O-] [ABT-737] (max 10 µM) ?
-0.0339
